- TARGET_SYSTEM: T1, recombinant human ROR1 protein (Fc-Tag, Acro Biosystems RO1-H5250) (human, UniProt Q01973 30-406)
- T1 construct: Bought; also called hROR1; recombinant human ROR1 ECD; not shown: Fc tag
- RUN_DESCRIPTION: SPR; hROR1-Fc immobilized
RECORDED_ENDPOINT: pKd
Answer as the number alone; pKd is minus log10 of concentration in mol/L.

Completed entries (count: 2):
# BINDER, MEASURED
records = [
    ("PRO2271 (scFv, V domains shown, scFv, T cell score optimized variant of PRO2062; also called 55-39-G02-sc03) VH: QSQLVESGGGLVQPGGSLRLSCAVSGIDLSRNAMSWVRQAPGKGLEWIGIILTSGSTYYASWAKGRFTISKTSTTLDLQMNSLRAEDTAVYFCVRGIASSSLKSFWGQGTLVTVSS VL: AQQLTQSPSSLSASVGDRVTITCQASQNVWNNNYLSWFQQKPGKPPKLLIVTASTLASGVSSRFSGSGSGTDFTLTISSLQPEDFATYYCAGGFSGEIRAFGTGTKVTVLG", 9.44),
    ("PRO2292 (scFv, V domains shown, scFv, PRO2062 with VL-VH interdomain disulfide (AHo 141VL-51VH); also called 55-39-G02-sc05) VH: QSQLVESGGGLVQPGGSLRLSCAVSGLSLSRNAMSWVRQAPGKCLEWIGIILTSGSTYYASWAKGRFTISKDNSKNTVYLQMNSLRAEDTAVYFCVRGIASSSLKSFWGQGTLVTVSS VL: AQQLTQSPSSLSASVGDRVTITCQASQNVWNNNYLSWFQQKPGKPPKLLIVTASTLASGVSSRFSGSGSGTDFTLTISSLQPEDFATYYCAGGFSGEIRAFGCGTKVTVLG", 10.04),
]

// next entry
## Input // returns reported pKd for input PRO2060 (scFv, V domains shown, scFv (Full graft); also called 55-38-D07-sc02) VH: QSQVVESGGGLVQPGGSLRLSCAVSGFDLSSYAVSWVRQAPGKGLEWIGIIYPRANTYYASWAKGRFTISKDNSKNTVYLQMNSLRAEDTAVYFCARDRYDSGAYLYTTYFNLWGQGTLVTVSS VL: DVQMTQSPSSLSASVGDRVTITCRASENIYSGLAWYQQKPGKPPKLLIYRASTLASGVSSRFSGSGSGTDFTLTISSLQPEDFATYYCQGGYYSSSSTYIAFGTGTKVTVLG
## Output 9.55
